# Test System: biotin-angiocidin complex binding to TSP-1 (Homo sapiens, UniProt P55036, INS254GER)
# Sequence (P55036 with tags, fused parts or gaps INS254GER): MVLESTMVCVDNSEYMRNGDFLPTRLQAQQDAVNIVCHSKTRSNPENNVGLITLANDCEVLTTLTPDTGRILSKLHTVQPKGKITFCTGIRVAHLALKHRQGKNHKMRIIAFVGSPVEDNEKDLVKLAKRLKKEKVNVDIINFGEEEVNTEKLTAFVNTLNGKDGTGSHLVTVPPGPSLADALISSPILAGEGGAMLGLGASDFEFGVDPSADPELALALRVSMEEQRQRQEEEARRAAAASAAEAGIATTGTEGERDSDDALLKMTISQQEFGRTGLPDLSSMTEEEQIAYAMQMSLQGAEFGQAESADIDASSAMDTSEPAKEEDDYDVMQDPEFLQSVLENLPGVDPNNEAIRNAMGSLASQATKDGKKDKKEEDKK
# Assay Explanation: Biotin-avidin receptor binding assay: competition
# Settings: Example 25, peptide 1 mg/ml, FIG. 32
No end group written: not given here. *: point of attachment. Acm = CC(=O)NC*
Outcome Measure: peptide competition of TSP-1 receptor binding

{"Substance": "d-Gly-Cys(Acm)-Thr-Val-Ser-Cys(Acm) (GCTVSC; not fully specified (residues 2, 3, 4, 5, 6); printed as d-Gly-Cys(Acm)-Thr-Val-Ser-Cys(Acm); cysteine pairing not given here; also: d- prefix stated for the peptide (mirror image, D-orientation)) [mirror image acetylated peptide]", "Observed Value": "inhibited binding"}
{"Substance": "Cys(Acm)-Ser-Val-Thr-Cys(Acm)-Gly (C(Acm)SVTC(Acm)G)", "Observed Value": "inhibited binding"}

Cited source: patent US20030180295A1
